Attribution: patent US6518243B1

- Tested on: E. faecalis (CL 4877)
- assay.info: Zone of inhibition screen, 96 well agar array format
- Type: cell-based
- Design: scale not given here
- experimental.conditions: zone of inhibition relative to 1 mg/ml stock solution of p-chlorobiphenylvancomycin
property.measured: zone score, E. faecalis CL 4877

compound="CCOC(=O)NC(CC(N)=O)C(=O)NC1C(=O)NC(CC(N)=O)C(=O)NC2C(=O)NC3C(=O)NC(C(=O)NC(C(=O)O)c4cc(O)cc(O)c4-c4cc3ccc4O)C(O)c3ccc(c(Cl)c3)Oc3cc2cc(c3OC2OC(CO)C(O)C(O)C2OC2CC(C)(NCc3ccc(-c4ccc(Cl)cc4)cc3)C(O)C(C)O2)Oc2ccc(cc2Cl)C1O (stereo not drawn) [Compound 188]" observed_value=2
compound="CC1OC(OC2C(Oc3c4cc5cc3Oc3ccc(cc3Cl)C(O)C3NC(=O)C(NC(=O)C5NC(=O)C(CC(N)=O)NC(=O)C(NC(=O)C(=O)NNC(=N)N)C(O)c5ccc(c(Cl)c5)O4)c4ccc(O)c(c4)-c4c(O)cc(O)cc4C(C(=O)O)NC3=O)OC(CO)C(O)C2O)CC(C)(NCc2ccc(-c3ccc(Cl)cc3)cc2)C1O (stereo not drawn) [Compound 199]" observed_value=2
compound="CSCCC(NC(C)=O)C(=O)NC1C(=O)NC(CC(N)=O)C(=O)NC2C(=O)NC3C(=O)NC(C(=O)NC(C(=O)O)c4cc(O)cc(O)c4-c4cc3ccc4O)C(O)c3ccc(c(Cl)c3)Oc3cc2cc(c3OC2OC(CO)C(O)C(O)C2OC2CC(C)(NCc3ccc(-c4ccc(Cl)cc4)cc3)C(O)C(C)O2)Oc2ccc(cc2Cl)C1O (stereo not drawn) [Compound 115]" observed_value=2
compound="CC1OC(OC2C(Oc3c4cc5cc3Oc3ccc(cc3Cl)C(O)C3NC(=O)C(NC(=O)C5NC(=O)C(CC(N)=O)NC(=O)C(NC(=O)CCO)C(O)c5ccc(c(Cl)c5)O4)c4ccc(O)c(c4)-c4c(O)cc(O)cc4C(C(=O)O)NC3=O)OC(CO)C(O)C2O)CC(C)(NCc2ccc(-c3ccc(Cl)cc3)cc2)C1O (stereo not drawn) [Compound 106]" observed_value=2
compound="CC(=O)NC(CC(N)=O)C(=O)NC1C(=O)NC(CC(N)=O)C(=O)NC2C(=O)NC3C(=O)NC(C(=O)NC(C(=O)O)c4cc(O)cc(O)c4-c4cc3ccc4O)C(O)c3ccc(c(Cl)c3)Oc3cc2cc(c3OC2OC(CO)C(O)C(O)C2OC2CC(C)(NCc3ccc(-c4ccc(Cl)cc4)cc3)C(O)C(C)O2)Oc2ccc(cc2Cl)C1O (stereo not drawn) [Compound 113]" observed_value=2
compound="CC(N)C(=O)NC1C(=O)NC(CC(N)=O)C(=O)NC2C(=O)NC3C(=O)NC(C(=O)NC(C(=O)O)c4cc(O)cc(O)c4-c4cc3ccc4O)C(O)c3ccc(c(Cl)c3)Oc3cc2cc(c3OC2OC(CO)C(O)C(O)C2OC2CC(C)(NCc3ccc(-c4ccc(Cl)cc4)cc3)C(O)C(C)O2)Oc2ccc(cc2Cl)C1O (stereo not drawn) [Compound 51]" observed_value=2

* * *

zone score, E. faecalis CL 4877: recorded values
- System: E. faecalis (CL 4877)
- assay.info: Zone of inhibition screen, 96 well agar array format
- Format: cell-based
- Design: scale not given here
- experimental.conditions: zone of inhibition relative to 1 mg/ml stock solution of p-chlorobiphenylvancomycin
property.measured: zone score, E. faecalis CL 4877

compound="CC(=O)NC(C(=O)NC1C(=O)NC(CC(N)=O)C(=O)NC2C(=O)NC3C(=O)NC(C(=O)NC(C(=O)O)c4cc(O)cc(O)c4-c4cc3ccc4O)C(O)c3ccc(c(Cl)c3)Oc3cc2cc(c3OC2OC(CO)C(O)C(O)C2OC2CC(C)(NCc3ccc(-c4ccc(Cl)cc4)cc3)C(O)C(C)O2)Oc2ccc(cc2Cl)C1O)C(C)O (stereo not drawn)" observed_value=2
compound="CC1OC(OC2C(Oc3c4cc5cc3Oc3ccc(cc3Cl)C(O)C(NC(=O)C3OC(O)C(O)C(O)C3O)C(=O)NC(CC(N)=O)C(=O)NC5C(=O)NC3C(=O)NC(C(=O)NC(C(=O)O)c5cc(O)cc(O)c5-c5cc3ccc5O)C(O)c3ccc(c(Cl)c3)O4)OC(CO)C(O)C2O)CC(C)(NCc2ccc(-c3ccc(Cl)cc3)cc2)C1O (mixture of isomers) [Compound 148]" observed_value=2
compound="CC1OC(OC2C(Oc3c4cc5cc3Oc3ccc(cc3Cl)C(O)C(NC(=O)C(O)C(O)C(O)CO)C(=O)NC(CC(N)=O)C(=O)NC5C(=O)NC3C(=O)NC(C(=O)NC(C(=O)O)c5cc(O)cc(O)c5-c5cc3ccc5O)C(O)c3ccc(c(Cl)c3)O4)OC(CO)C(O)C2O)CC(C)(NCc2ccc(-c3ccc(Cl)cc3)cc2)C1O (stereo not drawn)" observed_value=2
